Hey, just so you know, these numbers are from paper PMC10786891.

targetSystem: T1, EsCas13d, nuclease-dead (Eubacterium siraeum, UniProt B0MS50, R295A;H300A;R849A;H854A)
T1 sequence: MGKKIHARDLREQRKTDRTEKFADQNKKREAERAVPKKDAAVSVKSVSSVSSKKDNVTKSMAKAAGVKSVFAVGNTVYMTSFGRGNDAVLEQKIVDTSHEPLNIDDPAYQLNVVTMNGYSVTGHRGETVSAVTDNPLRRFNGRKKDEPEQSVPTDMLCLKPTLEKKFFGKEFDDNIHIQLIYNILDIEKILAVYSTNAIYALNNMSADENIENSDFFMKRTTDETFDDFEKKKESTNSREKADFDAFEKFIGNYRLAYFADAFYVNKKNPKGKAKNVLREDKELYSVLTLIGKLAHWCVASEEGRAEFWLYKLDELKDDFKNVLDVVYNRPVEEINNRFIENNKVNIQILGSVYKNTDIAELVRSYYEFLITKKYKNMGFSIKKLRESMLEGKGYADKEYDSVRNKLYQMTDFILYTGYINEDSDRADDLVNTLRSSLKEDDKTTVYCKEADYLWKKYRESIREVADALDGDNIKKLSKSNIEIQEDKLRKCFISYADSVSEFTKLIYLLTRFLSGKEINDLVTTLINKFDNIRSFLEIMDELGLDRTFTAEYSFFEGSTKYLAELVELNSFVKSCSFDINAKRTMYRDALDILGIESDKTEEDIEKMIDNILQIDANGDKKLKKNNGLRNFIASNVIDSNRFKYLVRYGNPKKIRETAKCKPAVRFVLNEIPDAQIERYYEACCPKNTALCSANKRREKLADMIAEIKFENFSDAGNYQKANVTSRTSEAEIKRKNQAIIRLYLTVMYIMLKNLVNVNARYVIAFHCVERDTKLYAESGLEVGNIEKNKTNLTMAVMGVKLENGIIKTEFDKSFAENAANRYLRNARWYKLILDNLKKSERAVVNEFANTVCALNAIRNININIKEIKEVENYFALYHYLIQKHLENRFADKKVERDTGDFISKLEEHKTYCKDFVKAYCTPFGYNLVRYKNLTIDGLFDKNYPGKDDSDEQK
experimentalProtocol: crRNA (strand 1, pre-loaded); Mg2+; 40 mM Tris-HCl pH 7.5, 150 mM NaCl, 6 mM MgCl2, 1 mM DTT, 0.1% Tween-20, 0.2 mg/ml BSA; 25 C; 10 min per concentration, then washed
setupConditions: tags: His6-TwinStrep-SUMO cleaved; N-terminal SNAP kept (SNAP-Surface 488); label: 3' end held by stalled T7 RNA polymerase
measuredQuantity: pKd
Numbers only, as −log10 of the molar value.

Okay, here is my list. What is pKd for each of these?
1. target 1 MT 5'PFS GGG 3'PFS UUU (mixed) RNA 1: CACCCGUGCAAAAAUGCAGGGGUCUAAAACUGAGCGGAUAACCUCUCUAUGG RNA 2: GGGAAUGGAUCCACAUCUACGAAUUCGGGCCAUAGAGAGGUUAUCCGCUCAUUUAGAUCGGAAGAGCACACGU
2. target 2 MT 5'PFS GGU 3'PFS CAC (mixed) RNA 1: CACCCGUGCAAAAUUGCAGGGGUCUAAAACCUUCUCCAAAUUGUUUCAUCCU RNA 2: GGGAAUGGAUCCACAUCUACGAAUUCGGUAGGAUGAAACAAUUUGGAGAAGCACAGAUCGGAAGAGCACACGU
3. target 1 MT 5'PFS UUA 3'PFS UAU (mixed) RNA 1: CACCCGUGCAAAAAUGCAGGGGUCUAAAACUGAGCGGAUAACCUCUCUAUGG RNA 2: GGGAAUGGAUCCACAUCUACGAAUUCUUACCAUAGAGAGGUUAUCCGCUCAUAUAGAUCGGAAGAGCACACGU
4. target 1 insG 3' of 16,insU 3' of 15 (mixed) RNA 1: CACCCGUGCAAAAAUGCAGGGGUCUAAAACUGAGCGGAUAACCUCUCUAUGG RNA 2: GGGAAUGGAUCCACAUCUACGAAUUCGUACCAUAGAGGUAGGUUAUCCGCUCACCGAGAUCGGAAGAGCACACGU

7.83
7.83
7.90
7.59
